Assay: clinical
Details: human, in vivo, po, F
MEASURED QUANTITY: bioavailability

MOLECULE: O=C(CCCN1CCC(O)(c2ccc(Cl)cc2)CC1)c1ccc(F)cc1
REPORTED VALUE: 79%
--
MOLECULE: CCOC(=O)C1=C(C)NC(C)=C(C(=O)OC)C1c1cccc([N+](=O)[O-])c1 (stereo not given)
REPORTED VALUE: < 20%
--
MOLECULE: CC(C)NCC(O)c1ccc(O)c(O)c1 (stereo not given)
REPORTED VALUE: 49%
--
MOLECULE: CCCNC1CCc2nc(N)sc2C1 (stereo not given)
REPORTED VALUE: ≥ 80%
--
MOLECULE: O=C(NCC1CCCCN1)c1cc(OCC(F)(F)F)ccc1OCC(F)(F)F (stereo not given) [FLECAINIDE]
REPORTED VALUE: ≥ 80%

Kindly give each listed record's bioavailability.
1. C#C[C@]1(O)CC[C@H]2[C@@H]3CCc4cc(O)ccc4[C@H]3CC[C@@]21C
2. C[C@H]1C[C@@H]2[C@H]([C@@H](O)C[C@@]3(C)[C@H]2CC[C@]3(O)C(=O)CO)[C@@]2(C)C=CC(=O)C=C12
3. CC(C)(Sc1cc(C(C)(C)C)c(O)c(C(C)(C)C)c1)Sc1cc(C(C)(C)C)c(O)c(C(C)(C)C)c1
4. CCCNC(=O)NS(=O)(=O)c1ccc(Cl)cc1 [CHLORPROPAMIDE]
5. Cc1ccc(C(=O)c2ccc(CC(=O)O)n2C)cc1
6. CNC(=C[N+](=O)[O-])NCCSCc1ccc(CN(C)C)o1

Output:
1: 49%; 2: > 80%; 3: < 20%; 4: ≥ 80%; 5: ≥ 80%; 6: 79%

Kindly give each listed record's bioavailability.
1. CNCCC[C@]12CC[C@H](c3ccccc31)c1ccccc12
2. Cc1ncc([N+](=O)[O-])n1CCO
3. O=C(c1ccc(OCCN2CCCCC2)cc1)c1c(-c2ccc(O)cc2)sc2cc(O)ccc12
4. CC(=O)CCCCn1c(=O)c2c(ncn2C)n(C)c1=O
5. CC(CCc1ccc(O)cc1)NCCc1ccc(O)c(O)c1 (stereo not given)
6. O=C1NC(=O)C(c2ccccc2)(c2ccccc2)N1

Output:
79%
≥ 80%
< 20%
49%
< 20%
> 80%

Kindly give each listed record's bioavailability.
1. CCCCNc1cc(C(=O)O)cc(S(N)(=O)=O)c1Oc1ccccc1 [BUMETANIDE]
2. Cc1nccn1CC1CCc2c(c3ccccc3n2C)C1=O (stereo not given)
3. CCCC(CCC)C(=O)O

Output:
≥ 80%
79%
≥ 80%
